# Test System: UniProt Q13547
# Experimental Setup: Sf9, dose 100.0 nM, time 15.0 min
Observable: inhibition (%)
Answers are plain numbers, in %.

COc1cc(Nc2ncc(Cl)c(Nc3ccccc3S(=O)(=O)C(C)C)n2)ccc1C(=O)NCCCCCC(=O)NO: 74

Fill in inhibition for each of the 2 compounds listed.
1. COc1cccc(Nc2nc(Nc3ccc(NC(=O)CCCCCCC(=O)NO)cc3)ncc2C(F)(F)F)c1
2. COc1cccc(Nc2nc(Nc3ccc(NC(=O)CCCCCCC(=O)NO)cc3)ncc2Cl)c1

Found:
[89, 97]

====

# Test System: Histone deacetylase 1 (Homo sapiens, UniProt Q13547)
# Sequence (Q13547 whole entry): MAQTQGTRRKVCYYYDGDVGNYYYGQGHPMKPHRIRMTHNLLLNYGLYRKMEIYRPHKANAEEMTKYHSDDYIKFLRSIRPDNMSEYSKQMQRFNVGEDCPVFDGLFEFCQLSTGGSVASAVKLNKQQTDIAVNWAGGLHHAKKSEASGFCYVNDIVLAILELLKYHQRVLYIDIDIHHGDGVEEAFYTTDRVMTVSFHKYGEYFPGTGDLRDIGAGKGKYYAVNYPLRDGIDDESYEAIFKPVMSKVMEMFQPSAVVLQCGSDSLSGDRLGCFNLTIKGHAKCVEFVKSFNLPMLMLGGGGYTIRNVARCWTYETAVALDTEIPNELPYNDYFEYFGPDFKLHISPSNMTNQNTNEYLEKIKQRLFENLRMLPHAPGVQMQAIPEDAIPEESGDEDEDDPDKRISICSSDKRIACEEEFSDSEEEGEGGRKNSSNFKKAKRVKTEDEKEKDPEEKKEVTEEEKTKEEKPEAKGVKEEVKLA
# Experimental Setup: Sf9, dose 100.0 nM, time 15.0 min
Observable: inhibition (%)
One number for each entry, in %.

CC(C)S(=O)(=O)c1ccccc1Nc1nc(Nc2cccc(NC(=O)CCCCC(=O)NO)c2)ncc1Cl: 41

Fill in inhibition for each of the 8 compounds listed.
1. CC(C)S(=O)(=O)c1ccccc1Nc1nc(Nc2ccc(C(=O)NCCCCCC(=O)NO)cc2)ncc1Cl
2. CC(C)S(=O)(=O)c1ccccc1Nc1nc(Nc2cccc(C(=O)NCCCCCC(=O)NO)c2)ncc1Cl
3. CC(C)S(=O)(=O)c1ccccc1Nc1nc(Nc2ccc(NC(=O)CCCCCCC(=O)NO)cc2)ncc1Cl
4. CC(C)S(=O)(=O)c1ccccc1Nc1nc(Nc2ccc(C(=O)NCCCCCCC(=O)NO)cc2)ncc1Cl
5. O=C(CCCCCCC(=O)Nc1ccc(Nc2ncc(Cl)c(Nc3ccccc3Cl)n2)cc1)NO
6. CC(C)S(=O)(=O)c1ccccc1Nc1nc(Nc2cccc(C(=O)NCCCCC(=O)NO)c2)ncc1Cl
7. O=C(CCCCCCC(=O)Nc1ccc(Nc2ncc(Cl)c(Nc3ccccc3Br)n2)cc1)NO
8. CC(C)S(=O)(=O)c1ccccc1Nc1nc(Nc2ccc(NC(=O)CC(=O)NO)cc2)ncc1Cl

Found:
[101, 84, 87, 100, 90, 65, 88, -7]
